outcomeMeasure: flash point (°C)
Form entry: value (°C) — number only.

Guide cases for flash point, answers given:
compound="CN(C)Cc1ccccc1 [N,N-dimethyl-1-phenylmethanamine]" outcomemeasure="flash point" unittag=°C endpointresult=57.00
compound=COP(=S)(OC)Oc1ccc(SC)c(C)c1 outcomemeasure="flash point" unittag=°C endpointresult=170.00
compound=CC(C)CCCCCCCOP(=S)([S-])OCCCCCCCC(C)C.CC(C)CCCCCCCOP(=S)([S-])OCCCCCCCC(C)C.[Zn+2] outcomemeasure="flash point" unittag=°C endpointresult=280.00
compound="CC[Si](Cl)(Cl)CC [dichloro(diethyl)silane]" outcomemeasure="flash point" unittag=°C endpointresult=24.00
compound="CC(C)CCCCCOC(=O)CCCCC(=O)OCCCCCC(C)C [bis(6-methylheptyl) hexanedioate]" outcomemeasure="flash point" unittag=°C endpointresult=210.00

Request: Quick one: flash point for CCCCCC [hexane] ?
Response: -23.00

Request: Further, for Nc1ccccc1N [benzene-1,2-diamine] ?
Response: 156.00

Request: Further, for CCCCN(CC)N=O [N-butyl-N-ethylnitrous amide] ?
Response: 93.00

* * *

// classify: if (flash point < 50 °C) satisfied else not satisfied

# count of solved cases: 4
compound=[C-]1=CC=CC1.[C-]1=CC=CC1.[Ni+2] grouplabel=satisfied
compound=C=COCCCC grouplabel=satisfied
compound=C=CCN(CC=C)CC=C grouplabel=satisfied
compound=Cc1cc(C)cc(N)c1.Cc1ccc(C)c(N)c1.Cc1ccc(N)c(C)c1.Cc1ccc(N)cc1C.Cc1cccc(C)c1N.Cc1cccc(N)c1C grouplabel="not satisfied"

Request: flash point under 50 °C? Item: "O=[N+]([O-])c1ccc(Cl)c([N+](=O)[O-])c1"
Response: not satisfied

Request: Further, for "CCCN(CCCl)c1c([N+](=O)[O-])cc(C(F)(F)F)cc1[N+](=O)[O-]" ?
Response: satisfied

Request: Further, for CCOCC(C)OC(C)=O (centres undefined) [1-ethoxypropan-2-yl acetate] ?
Response: not satisfied

Request: Further, for CCSC(=O)N(CC(C)C)CC(C)C [S-ethyl N,N-bis(2-methylpropyl)carbamothioate] ?
Response: not satisfied

Request: Further, for "C#CC(=O)O" ?
Response: not satisfied

* * *

// label = fulfilled if flash point is not less than 40 °C, otherwise not fulfilled

# count of solved cases: 5
molecule="CC#CCC [2-pentyne]" grouplabel="not fulfilled"
molecule="CC(=O)OC(C)c1ccccc1 (stereo not drawn) [1-phenylethylacetate]" grouplabel=fulfilled
molecule="C1CCC(C2CCCCC2)CC1 [bicyclohexyl]" grouplabel=fulfilled
molecule="CN(C)CCCN [N,N-dimethyl-1,3-propanediamine]" grouplabel="not fulfilled"
molecule="CC(C)C=O [2-methylpropanal]" grouplabel="not fulfilled"

Request: Kindly determine if flash point recorded for C=C(Cl)Cl [1,1-dichloroethene] is above or exactly 40 °C.
Response: not fulfilled

Request: Further, for CCCCCCBr [1-bromohexane] ?
Response: fulfilled

* * *

outcomeMeasure: flash point (°C)
Form entry: value (°C) — number only.

Guide cases for flash point, answers given:
compound="C#CCC1=C(C)C(OC(=O)[C@H]2[C@H](C=C(C)C)C2(C)C)CC1=O (stereo not given in full)" outcomemeasure="flash point" endpointresult=139.00
compound="CCCC(=O)OCC [ethyl butanoate]" outcomemeasure="flash point" endpointresult=24.00
compound="OOC1(OOC2(O)CCCCC2)CCCCC1 [1-(1-hydroperoxycyclohexyl)peroxycyclohexan-1-ol]" outcomemeasure="flash point" endpointresult=157.00

Request: Quick one: flash point for CCCCOCCOC(C)=O [2-butoxyethyl acetate] ?
Response: 71.00

Request: Further, for "C1=CCC=C1.C1=CCC=C1.[Ni]" ?
Response: 4.00

Request: Further, for "CC(C)C(=O)O" ?
Response: 56.00

Request: Further, for "C=C(C)CC(C)(C)C" ?
Response: 2.00

Request: Further, for COc1cc(C=O)ccc1O [4-hydroxy-3-methoxybenzaldehyde] ?
Response: 153.00

Request: Further, for "N#CCCNCCC#N" ?
Response: 110.00

Request: Further, for "CCC(CC)CO" ?
Response: 53.00
